- assay text: NCI Yeast Anticancer Drug Screen. Data for the cln2 rad14 strain (AID 165);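 also: 0% = growth equal to vehicle treated cultures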
- measurement setup: S. cerevisiae cln2 rad14 strain, at 5.0 µM (retest, dose inferred, filed as 0.5), hits give high values
The panel holds about 79,000 compounds, 15% with a hit somewhere; the sample as a whole holds those more often.
Entry flag: label 1 if growth inhibition reaches 20%; label 0 if it does not.

Below are worked cases with known answers.
INSERT INTO assay_data (compound, class_label) VALUES
  ('COc1ccc(N=Cc2cc(Br)cc(Br)c2O)cc1.COc1ccc(N=Cc2cc(Br)cc(Br)c2O)cc1.[Co]', 'label 1'),
  ('CC(C)OC(=O)c1ccc(CCC2=CC(=O)C=CC2=O)cc1', 'label 1'),
  ('Cc1c2ccccc2c(CO)c2cc(F)c3ccccc3c12', 'label 1'),
  ('O=C(Cl)c1ccc(N=Nc2ccccc2)cc1', 'label 0'),
  ('CC(C)CCSc1ncnc2nc[nH]c12', 'label 0');

Prompt: Decide: growth inhibition of O=C(Nc1ccc(NC(=O)Nc2cc(C(=O)Nc3ccc(C4=NCCN4)cc3)ccc2C(=O)Nc2ccc(C3=NCCN3)cc2)cc1)Nc1cc(C(=O)Nc2ccc(C3=NCCN3)cc2)ccc1C(=O)Nc1ccc(C2=NCCN2)cc1 >= 20%?
Completion: label 0

###

- assay text: NCI Yeast Anticancer Drug Screen. Data for the cln2 rad14 strain (AID 165);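 also: 0% = growth equal to vehicle treated cultures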
- measurement setup: S. cerevisiae cln2 rad14 strain, at 50.0 µM (retest, dose inferred, filed as 5.0), hits give high values
- Experimental: Growth inhibition of yeast strains with defined genetic alterations is measured as a screen for potential anti-cancer activity. Selected strains with alterations in DNA damage repair or cell cycle control were exposed to compounds and growth inhibition was measured relative to vehicle treated controls. The strain used in this assay is cln2 rad14
Compounds without any hit were thinned out: in the full panel of roughly 79,000, 15% have a hit.
result type: growth inhibition (%)
Express it in %; write the number only.

Observe how each entry below is paired with its result.
INSERT INTO assay_data (compound, unit_descriptor, reported_result) VALUES
  ('Cc1ccc(SC2=C(N(C)C)C(=O)c3ccccc3C2=O)cc1', '%', 94),
  ('COC(=O)c1nnn(-c2ccc(Cl)cc2Cl)c1C(=O)c1ccc(Cl)c(Cl)c1', '%', 98),
  ('CC1OC(Oc2c(-c3ccc(O)c(O)c3O)oc3cc(O)ccc3c2=O)C(O)C(O)C1O (stereo unspecified)', '%', -6);

Prompt: Give a short answer stating reported growth inhibition for C/C=C/C/C=C/CCC(=O)C1OC1C(N)=O (stereo unspecified) .
Completion: 99

Prompt: Give a short answer stating reported growth inhibition for COc1ccc(C(=O)C(Br)CS(=O)(=O)c2ccc(C)cc2)cc1 (stereo unspecified) .
Completion: 98

Prompt: Give a short answer stating reported growth inhibition for CC12CCC3C(CCC4CC(O)CCC43C)C1CC=CO2 (stereo unspecified) .
Completion: 99

Prompt: Give a short answer stating reported growth inhibition for OC(c1cc(-c2ccc(Cl)cc2Cl)nc2ccccc12)C1CCCCN1 (stereo unspecified) .
Completion: 97

Prompt: Give a short answer stating reported growth inhibition for COC(=O)/C(=C\c1cn(C(C)=O)c2ccccc12)P(=O)(OC)OC .
Completion: 38

###

- assay text: NCI Yeast Anticancer Drug Screen. Data for the sgs1 mgt1 strain (AID 161);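 also: 0% = growth of cultures given vehicle only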
- measurement setup: S. cerevisiae sgs1 mgt1 strain, at 50.0 µM (retest, dose inferred, filed as 5.0), hits give high values
About 79,000 compounds went through this panel and 15% of them were active in at least one assay; those are over-represented in the sample as a whole.
result type: growth inhibition (%)
Express it in %; write the number only.

Observe how each entry below is paired with its result.
INSERT INTO results (molecule, reported_result) VALUES
  ('O=C1OC(CC(=O)c2ccc(Cl)cc2Cl)C(Cl)=C1Cl (configuration not stated)', 50),
  ('Cc1ccccc1Nc1nc(-c2ccccc2)nc(N)c1N=O', 98),
  ('O=C1c2ccccc2C(=O)c2c1cccc2[N+](=O)[O-]', 88),
  ('N=C(N)c1ccc(/C=C/c2ccc(C(=N)N)cc2)cc1', 87);

Prompt: Give a short answer stating reported growth inhibition for O=C(O)Cc1cccc(O)c1 .
Completion: -4

Prompt: Give a short answer stating reported growth inhibition for COc1ccccc1C(=O)c1ccc2ccccc2c1 .
Completion: 83

Prompt: Give a short answer stating reported growth inhibition for Clc1ccc(C(CCc2ccc(Br)cc2)Cn2ccnc2)c(Cl)c1 (configuration not stated) .
Completion: 99
